# protocolDetails: Repeat-dose dose-escalation study of controlled release anagrelide: pharmacokinetics
# Type: in vivo, human
# settings: human, plasma, oral, 0.4 mg, dose-normalized to 0.2 mg; cohort 2 (0.4 mg); day 1; read-out: AUC0-inf
outcomeMeasure: AUC0-inf (ng·h/mL)
One number for each entry, in ng·h/mL.

Prompt: Tell me the measured AUC0-inf of O=C1CN2Cc3c(ccc(Cl)c3Cl)N=C2N1 [anagrelide] , please.
Response: 3.48

---

# protocolDetails: Repeat-dose dose-escalation study of controlled release anagrelide: pharmacokinetics
# Format: in vivo, human
# settings: human, plasma, oral, 0.3 mg, dose-normalized to 0.2 mg; cohort 4 (0.3 mg); day 23; read-out: Cmax
outcomeMeasure: Cmax (ng/mL)
One number for each entry, in ng/mL.

Prompt: Request the reported Cmax associated with O=C1CN2Cc3c(ccc(Cl)c3Cl)N=C2N1 [anagrelide]
Response: 0.224
